- experimental.target: Purine nucleoside phosphorylase (Homo sapiens)
- assay.details: Inhibitory activity against Purine nucleoside phosphorylase evaluated by radiochemical assay concentration <300 uM
- Assay type: tissue-based
readout.label: inhibition (%)

A selection of reference data follows.
CSc1nc(O)c2ncnc-2n1Cc1ccccc1 :: 23.3
Oc1ncn(CCc2ccccc2)c2ncnc1-2 :: 26.8

1: Oc1ncn(Cc2ccc(Cl)c(Cl)c2)c2ncnc1-2
2: N#Cc1ccc(Cn2cnc(O)c3ncnc2-3)cc1
3: O=[N+]([O-])c1ccc(Cn2cnc(O)c3ncnc2-3)cc1
Ask: Sequence the entries by inhibition, beginning with the highest number. Use the labels to give the ranking in the order requested.
Result: 1, 2, 3
(1: 36.9%, 2: 22.2%, 3: 13.1%)
